Where these numbers come from: ChEMBL document CHEMBL4619777

- Experimental system: Genome polyprotein (dengue virus type 2)
- Assay name: Inhibition of Dengue virus serotype 2 NS2B-NS3 protease transfected in human HeLa cells at 12.5 uM measured after 24 hrs by Renilla-luciferase reporter gene assay relative to control
- Format: cell-based
Residues, ends and D or L forms follow the SMILES beside them. *: point of attachment. Bz = O=C(c1ccccc1)*

Molecule | Sign qualifier | inhibition (%)
N=C(N)NCCC[C@H](NC(=O)c1ccccc1)C(=O)N[C@@H](CCCCN)C(=O)NCC(N)=O (Bz-Arg-Lys-Gly-NH2) | < | 10
CCCCCC(=O)N[C@H](C(=O)NCc1cccc(CNC(=N)N)c1)c1ccc(OCc2ccccc2)cc1 | = | 47.4
N=C(N)Nc1ccc(CNC(=O)[C@@H](NC(=O)c2ccccc2-c2ccccc2)c2ccc(OCc3ccccc3)cc2)cc1.O=C(O)C(F)(F)F | = | 30.1
CCCCCC(=O)N[C@H](C(=O)NCc1ccc(NC(=N)N)cc1)c1ccc(OCc2ccc(C#N)cc2)cc1.O=C(O)C(F)(F)F | = | 12.7
N=C(N)Nc1ccc(CNC(=O)[C@@H](NC(=O)c2ccc(Oc3ccccc3)cc2)c2ccc(OCc3ccccc3)cc2)cc1.O=C(O)C(F)(F)F | = | 68.5
COc1cccc(COc2ccc(C(=O)N[C@H](C(=O)NCc3ccc(NC(=N)N)cc3)c3ccc(OCc4ccccc4)cc3)cc2)c1.O=C(O)C(F)(F)F | = | 67.6
CCCCCC(=O)N[C@H](C(=O)NCc1ccc(CNC(=N)N)cc1)c1ccc(OCc2ccccc2)cc1.O=C(O)C(F)(F)F | = | 66.3
